IC50 values for the compounds below.
system: MCF7; experiment: Cytotoxicity against human MCF7 cells after 72 hrs by WST-1 assay; type: functional, cell-based; conditions: MCF7, 72 h

Sample answers from the record:
C/C=C(/C)C(=O)O[C@@H]1C[C@H]2C(=C1C)[C@@H]1OC(=O)[C@@](C)(O)[C@@]1(O)[C@@H](OC(=O)CCOCCOCCOCCOCCOCCOCCOCCOCCOCCOCCn1cc(COc3ccc(C4=C5C=CC=[N+]5[B-](F)(F)n5cccc54)cc3)nn1)C[C@]2(C)OC(C)=O; 47.3 µM
C/C=C(/C)C(=O)O[C@@H]1C[C@H]2C(=C1C)[C@@H]1OC(=O)[C@@](C)(O)[C@@]1(O)[C@@H](OC(=O)CCOCCOCCOCCOCCn1cc(COc3ccc(C4=C5C=CC=[N+]5[B-](F)(F)n5cccc54)cc3)nn1)C[C@]2(C)OC(C)=O; 6 µM
C/C=C(/C)C(=O)O[C@@H]1C[C@H]2C(=C1C)[C@@H]1OC(=O)[C@@](C)(O)[C@@]1(O)[C@@H](OC(=O)[C@@H](C)CC)C[C@]2(C)OC(C)=O; 2.1 µM
F[B-]1(F)n2cccc2C=C2C=CC=[N+]21; > 50 µM
C/C=C(/C)C(=O)O[C@@H]1C[C@H]2C(=C1C)[C@@H]1OC(=O)[C@@](C)(O)[C@@]1(O)[C@@H](OC(=O)CCOCCOCCOCCOCCn1cc(COCCOCCOCCOCCNC(=O)CCOCCOCCOCCOCCn3cc(COc4ccc(C5=C6C=CC=[N+]6[B-](F)(F)n6cccc65)cc4)nn3)nn1)C[C@]2(C)OC(C)=O; > 50 µM

I have this compound here, "C/C=C(/C)C(=O)O[C@@H]1C[C@H]2C(=C1C)[C@@H]1OC(=O)[C@@](C)(O)[C@@]1(O)[C@@H](OC(=O)Cn1cc(COc3ccc(C4=C5C=CC=[N+]5[B-](F)(F)n5cccc54)cc3)nn1)C[C@]2(C)OC(C)=O" , and I need its recorded IC50.
> 50 µM

I have this compound here, "C/C=C(/C)C(=O)O[C@@H]1C[C@H]2C(=C1C)[C@@H]1OC(=O)[C@@](C)(O)[C@@]1(O)[C@@H](OC(=O)CCCCn1cc(COc3ccc(C4=C5C=CC=[N+]5[B-](F)(F)n5cccc54)cc3)nn1)C[C@]2(C)OC(C)=O" , and I need its recorded IC50.
10.8 µM

====

tested on: LNCaP; assay: Cytotoxicity against human LNCAP cells after 24 hrs by WST-1 assay; format: functional, cell-based
pIC50 values for the molecules below.
Scale: pIC50 equals -log10([C]), with [C] in mol/L.

Write down the reported pIC50 of "C/C=C(/C)C(=O)O[C@@H]1C[C@H]2C(=C1C)[C@@H]1OC(=O)[C@@](C)(O)[C@@]1(O)[C@@H](OC(=O)CCOCCOCCOCCOCCn1cc(COc3ccc(C4=C5C=CC=[N+]5[B-](F)(F)n5cccc54)cc3)nn1)C[C@]2(C)OC(C)=O" , test system: LNCaP.
5.13

Write down the reported pIC50 of "C/C=C(/C)C(=O)O[C@@H]1C[C@H]2C(=C1C)[C@@H]1OC(=O)[C@@](C)(O)[C@@]1(O)[C@@H](OC(=O)[C@@H](C)CC)C[C@]2(C)OC(C)=O" , test system: LNCaP.
5.47

====

tested on: MCF7; experiment: Cytotoxicity against human MCF7 cells after 48 hrs by WST-1 assay; type: functional, cell-based; settings: MCF7, 48 h
Parameter Measured: IC50 (µM)
Only the number, expressed in µM, is required.

Sample answers from the record:
C/C=C(/C)C(=O)O[C@@H]1C[C@H]2C(=C1C)[C@@H]1OC(=O)[C@@](C)(O)[C@@]1(O)[C@@H](OC(=O)[C@@H](C)CC)C[C@]2(C)OC(C)=O; 2.5
C/C=C(/C)C(=O)O[C@@H]1C[C@H]2C(=C1C)[C@@H]1OC(=O)[C@@](C)(O)[C@@]1(O)[C@@H](OC(=O)CCCCn1cc(COc3ccc(C4=C5C=CC=[N+]5[B-](F)(F)n5cccc54)cc3)nn1)C[C@]2(C)OC(C)=O; 12.8
C/C=C(/C)C(=O)O[C@@H]1C[C@H]2C(=C1C)[C@@H]1OC(=O)[C@@](C)(O)[C@@]1(O)[C@@H](OC(=O)CCOCCOCCOCCOCCn1cc(COc3ccc(C4=C5C=CC=[N+]5[B-](F)(F)n5cccc54)cc3)nn1)C[C@]2(C)OC(C)=O; 6.3

Pending molecule:
I have this molecule here, "C/C=C(/C)C(=O)O[C@@H]1C[C@H]2C(=C1C)[C@@H]1OC(=O)[C@@](C)(O)[C@@]1(O)[C@@H](OC(=O)CCOCCOCCOCCOCCOCCOCCOCCOCCOCCOCCn1cc(COc3ccc(C4=C5C=CC=[N+]5[B-](F)(F)n5cccc54)cc3)nn1)C[C@]2(C)OC(C)=O" , and I need its recorded IC50.
48

====

pIC50 values for the molecules below.
test system: LNCaP; experiment: Cytotoxicity against human LNCAP cells after 48 hrs by WST-1 assay; format: functional, cell-based
Scale: pIC50 equals -log10([C]), with [C] in mol/L.

Sample answers from the record:
C/C=C(/C)C(=O)O[C@@H]1C[C@H]2C(=C1C)[C@@H]1OC(=O)[C@@](C)(O)[C@@]1(O)[C@@H](OC(=O)Cn1cc(COc3ccc(C4=C5C=CC=[N+]5[B-](F)(F)n5cccc54)cc3)nn1)C[C@]2(C)OC(C)=O; 5.46
C/C=C(/C)C(=O)O[C@@H]1C[C@H]2C(=C1C)[C@@H]1OC(=O)[C@@](C)(O)[C@@]1(O)[C@@H](OC(=O)[C@@H](C)CC)C[C@]2(C)OC(C)=O; 6.30
C/C=C(/C)C(=O)O[C@@H]1C[C@H]2C(=C1C)[C@@H]1OC(=O)[C@@](C)(O)[C@@]1(O)[C@@H](OC(=O)CCCCn1cc(COc3ccc(C4=C5C=CC=[N+]5[B-](F)(F)n5cccc54)cc3)nn1)C[C@]2(C)OC(C)=O; 5.01

Pending molecule:
I have this molecule here, "C/C=C(/C)C(=O)O[C@@H]1C[C@H]2C(=C1C)[C@@H]1OC(=O)[C@@](C)(O)[C@@]1(O)[C@@H](OC(=O)CCOCCOCCOCCOCCn1cc(COc3ccc(C4=C5C=CC=[N+]5[B-](F)(F)n5cccc54)cc3)nn1)C[C@]2(C)OC(C)=O" , and I need its recorded pIC50.
6.40

====

organism: Rattus norvegicus; test: Induction of LPS-induced NO production in rat peritoneal cells after 24 hrs using DAR-2 probe by fluorescence assay; assay type: functional, cell-based
Calls of active or inactive are those of the source. No cut-off for these calls is given here.
Entry note: the call must match one of active, inactive

As a guide, the following entries are already answered.
C/C=C(/C)C(=O)O[C@@H]1C[C@H]2C(=C1C)[C@@H]1OC(=O)[C@@](C)(O)[C@@]1(O)[C@@H](OC(=O)Cn1cc(COc3ccc(C4=C5C=CC=[N+]5[B-](F)(F)n5cccc54)cc3)nn1)C[C@]2(C)OC(C)=O; active
C/C=C(/C)C(=O)O[C@@H]1C[C@H]2C(=C1C)[C@@H]1OC(=O)[C@@](C)(O)[C@@]1(O)[C@@H](OC(=O)CCOCCOCCOCCOCCn1cc(COCCOCCOCCOCCNC(=O)CCOCCOCCOCCOCCn3cc(COc4ccc(C5=C6C=CC=[N+]6[B-](F)(F)n6cccc65)cc4)nn3)nn1)C[C@]2(C)OC(C)=O; active
C/C=C(/C)C(=O)O[C@@H]1C[C@H]2C(=C1C)[C@@H]1OC(=O)[C@@](C)(O)[C@@]1(O)[C@@H](OC(=O)CCCCn1cc(COc3ccc(C4=C5C=CC=[N+]5[B-](F)(F)n5cccc54)cc3)nn1)C[C@]2(C)OC(C)=O; active
F[B-]1(F)n2cccc2C=C2C=CC=[N+]21; inactive
C/C=C(/C)C(=O)O[C@@H]1C[C@H]2C(=C1C)[C@@H]1OC(=O)[C@@](C)(O)[C@@]1(O)[C@@H](OC(=O)CCOCCOCCOCCOCCOCCOCCOCCOCCOCCOCCn1cc(COc3ccc(C4=C5C=CC=[N+]5[B-](F)(F)n5cccc54)cc3)nn1)C[C@]2(C)OC(C)=O; active

Consider the record given below.
Given "C/C=C(/C)C(=O)O[C@@H]1C[C@H]2C(=C1C)[C@@H]1OC(=O)[C@@](C)(O)[C@@]1(O)[C@@H](OC(=O)CCOCCOCCOCCOCCn1cc(COc3ccc(C4=C5C=CC=[N+]5[B-](F)(F)n5cccc54)cc3)nn1)C[C@]2(C)OC(C)=O" , state the outcome it received in this test.
active

====

test system: LNCaP; test: Cytotoxicity against human LNCAP cells after 24 hrs by WST-1 assay; type: functional, cell-based
Parameter Measured: pIC50
Scale: pIC50 equals -log10([C]), with [C] in mol/L.

I have this compound here, "C/C=C(/C)C(=O)O[C@@H]1C[C@H]2C(=C1C)[C@@H]1OC(=O)[C@@](C)(O)[C@@]1(O)[C@@H](OC(=O)CCCCn1cc(COc3ccc(C4=C5C=CC=[N+]5[B-](F)(F)n5cccc54)cc3)nn1)C[C@]2(C)OC(C)=O" , and I need its recorded pIC50.
4.90
